- tested system: S protein of SARS-CoV Urbani strain (on virus) (SARS-CoV Urbani strain, UniProt P59594 14-1255)
- test name: cell-based or functional assay
measure name: Neutralizing titer 200TCID50 (µg/mL)
The reply should contain only the number, in µg/mL.

Value lookup for Neutralizing titer 200TCID50; key = 5A7 (antibody, V domains shown) VH: QVQLVQSGAEVKKPGASVKVSCKASGYTFTSYGISWVRQAPGQGLEWMGWISAYNGNTNYAQKLQGRVTMTTDTSTSTAYMELRSLRSDDTAVYYCAVGRYLDYWGQGTLVTVSS VL: DIQMTQSPSSLSASVGDRVTITCRASQDIRNDLGWYQQKPGKAPKRLIYAASSLQSGVPSRFSGSGSGTEFTLTISSLQPEDFATYYCLQYNSYPLTFGGGTKVEIK 0.781
